assay: Plasma pharmacokinetics of CX-5461 (HPLC-MS/MS, non-compartmental); type: in vivo, human; conditions: human, plasma, intravenous, 325 mg/m2, 325 mg/m2; Time 2; individual patients; read-out: Day 1 CX-5461 plasma concentration
OBSERVATION_TYPE: concentration at 2 h (ng/mL)
Field format: number, assumed ng/mL, no unit text.

Ask: Item under review: Cc1cnc(CNC(=O)c2c(=O)c3ccc(N4CCCN(C)CC4)nc3n3c2sc2ccccc23)cn1 [CX-5461] . Reported concentration at 2 h?
Result: 395

###

assay: Plasma pharmacokinetics of CX-5461 (HPLC-MS/MS, non-compartmental); type: in vivo, human; details: human, plasma, intravenous, 475 mg/m2, RP2D 475 mg/m^2 d1,8,15; plasma; read-out: average day 1 Cmax
OBSERVATION_TYPE: Cmax (ng/mL)
Field format: number, assumed ng/mL, no unit text.

Ask: Item under review: Cc1cnc(CNC(=O)c2c(=O)c3ccc(N4CCCN(C)CC4)nc3n3c2sc2ccccc23)cn1 [CX-5461] . Reported Cmax?
Result: 1740
